# System: Rattus norvegicus
# experimental_protocol: Decrease in LDL-cholesterol level in Fischer 344 rat plasma at 56 umol/kg, ip after 24 hrs
# Format: functional
# Parameters: scale not given: the % may be the effect or the level left
Consider the reported Activity of an entry and match it to a band in low = under 40%, mid = from 40% up to 50%, high = 50% and over

{"columns": ["compound", "class_assignment"],
 "data": [
  ["CN1CC(O)(c2ccc(-c3ccc(Cl)cc3)cc2)OC2CCCCC21 (configuration not stated)", "low"]
]}

QUERY: Which of the defined bands does the recorded Activity of OC1(c2ccc(-c3cccs3)cc2)CN2CCCCC2CO1 (configuration not stated) sit within?
RESULT: mid

QUERY: Consider next the compound CN1CC(O)(c2ccc(-c3ccc(Br)s3)cc2)OC2CCCCC21 (configuration not stated) in the same way.
RESULT: mid

QUERY: Consider next the compound OC1(c2ccc(-c3ccc(Br)s3)cc2)CN2CCCCC2CO1 (configuration not stated) in the same way.
RESULT: low

QUERY: Consider next the compound CN1CCOC(O)(c2ccc(-c3cccs3)cc2)C1 (configuration not stated) in the same way.
RESULT: high

QUERY: Consider next the compound CN1CCOC(O)(c2ccc(-c3ccc(F)cc3)cc2)C1 (configuration not stated) in the same way.
RESULT: low

====

Kindly state Activity for each of the entries shown.
# System: Rattus norvegicus
# experimental_protocol: Decrease in LDL-cholesterol level in Fischer 344 rat plasma at 56 umol/kg, ip after 24 hrs
# Type: functional
# Set-up: scale not given: the % may be the effect or the level left
Numbers only, in %.

{"columns": ["compound", "test_readout", "unit_tag", "quantitative_readout"],
 "data": [
  ["CN1CCOC(O)(c2ccc(-c3ccc(Cl)cc3)cc2)C1 (stereo not given)", "Activity", "%", 57],
  ["CN1CC(O)(c2ccc(-c3ccccc3F)cc2)OC2CCCCC21 (stereo not given)", "Activity", "%", 47],
  ["CN1CC(O)(c2ccc(-c3ccccc3)cc2)OC2CCCCC21 (stereo not given)", "Activity", "%", 51]
]}

The following compounds each have a reported value; give each one's Activity.
1. OC1(c2ccc(-c3ccc(F)cc3)cc2)CN2CCCCC2CO1 (stereo not given)
2. OC1(c2ccc(-c3ccc(Br)cc3)cc2)CN2CCCCC2CO1 (stereo not given)

RESULT:
[11, 6]

====

# System: Rattus norvegicus
# experimental_protocol: Decrease in total cholesterol level in Fischer 344 rat plasma at 56 umol/kg, ip after 24 hrs
# Type: functional
# Parameters: scale not given: the % may be the effect or the level left
Answer not met if Activity is under 40%, and met if it is 40% or more.

Solved entries (count: 5):
{"columns": ["molecule", "class_assignment"],
 "data": [
  ["OC1(c2ccc(-c3ccc(Br)cc3)cc2)CN2CCCCC2CO1 (stereo not drawn)", "not met"],
  ["CN1CC(O)(c2ccc(-c3ccc(Br)cc3)cc2)OC2CCCCC21 (stereo not drawn)", "not met"],
  ["CN1CC(O)(c2ccc(-c3ccccc3)cc2)OC2CCCCC21 (stereo not drawn)", "met"],
  ["CN1CC(O)(c2ccc(-c3ccc(Cl)cc3)cc2)OC2CCCCC21 (stereo not drawn)", "not met"],
  ["OC1(c2ccc(-c3ccc(Cl)cc3)cc2)CN2CCCCC2CO1 (stereo not drawn)", "met"]
]}

QUERY: Entry CN1CCOC(O)(c2ccc(-c3ccc(Br)s3)cc2)C1 (stereo not drawn) : is its Activity no less than 40%?
RESULT: met

QUERY: Consider next the molecule CN1CCOC(O)(c2ccc(-c3ccc(Br)cc3)cc2)C1 (stereo not drawn) in the same way.
RESULT: met

QUERY: Consider next the molecule OC1(c2ccc(-c3cccs3)cc2)CN2CCCCC2CO1 (stereo not drawn) in the same way.
RESULT: met

====

# Tested on: Rattus norvegicus
# experimental_protocol: Decrease in LDL-cholesterol level in Fischer 344 rat plasma at 56 umol/kg, ip after 24 hrs
# Format: functional
# Design: scale not given: the % may be the effect or the level left
test_readout: Activity (%)
Numbers only, in %.

{"columns": ["compound", "unit_tag", "quantitative_readout"],
 "data": [
  ["CN1CCOC(O)(c2ccc(-c3ccc(Br)s3)cc2)C1 (stereo unspecified)", "%", 26],
  ["CN1CC(O)(c2ccc(-c3cccs3)cc2)OC2CCCCC21 (stereo unspecified)", "%", 46],
  ["CN1CCOC(O)(c2ccc(-c3ccccc3F)cc2)C1 (stereo unspecified)", "%", 82]
]}

The following compounds each have a reported value; give each one's Activity.
1. OC1(c2ccc(-c3nc4ccccc4s3)cc2)CN2CCCCC2CO1 (stereo unspecified)
2. CN1CC(O)(c2ccc(-c3ccc(Br)cc3)cc2)OC2CCCCC21 (stereo unspecified)

RESULT:
1: 41; 2: 53

QUERY: For the compound shown here, CN1CCOC(O)(c2ccc(-c3ccc(Br)cc3)cc2)C1 (stereo unspecified) , give the reported Activity.
RESULT: 36

====

# Test system: Rattus norvegicus
# experimental_protocol: Decrease in total cholesterol level in Fischer 344 rat plasma at 56 umol/kg, ip after 24 hrs
# Type: functional
# Design: scale not given: the % may be the effect or the level left
Answer 0.0 if Activity is under 40%, and 1.0 if it is 40% or more.

QUERY: Entry CN1CC(O)(c2ccc(-c3ccccc3F)cc2)OC2CCCCC21 (stereo not given) : is its Activity no less than 40%?
RESULT: 0.0

QUERY: Consider next the compound CN1CC(O)(c2ccc(-c3nc4ccccc4s3)cc2)OC2CCCCC21 (stereo not given) in the same way.
RESULT: 0.0

QUERY: Consider next the compound CN1CCOC(O)(c2ccc(-c3cccs3)cc2)C1 (stereo not given) in the same way.
RESULT: 1.0

QUERY: Consider next the compound CN1CC(O)(c2ccc(-c3ccc(Br)s3)cc2)OC2CCCCC21 (stereo not given) in the same way.
RESULT: 0.0
